Hey, just so you know, these numbers are from PubChem BioAssay (EPA / NIEHS).

biological target: Nuclear receptor subfamily 1 group I member 2 (Homo sapiens); assay: ATG_PXR_TRANS: Attagene TRANS-FACTORIAL HepG2 Assay for human Pregnane X Receptor (PXR) (AID 2283008)
Inconclusive results are not listed. Calls of active or inactive are those of the source. Rule for the calls: active = hit-call score of the fitted dose curve at least 0.9, where 1 is the maximum; inconclusive = response in the unintended direction; inactive = score below 0.9.
Classes used: active, inactive

NCCOCCOCCN ... inactive
CCCC(=O)O ... inactive
CC(=O)[C@@]1(O)CC[C@H]2[C@@H]3CCC4=CC(=O)CC[C@]4(C)[C@H]3CC[C@@]21C ... inactive
O=C(N[C@@H](c1ccccc1)[C@@H]1CCCCN1)c1cccc(C(F)(F)F)c1Cl ... active
O=C1NC(=O)C(c2ccccc2)(c2ccccc2)N1 ... inactive
CCc1nc(N)nc(N)c1-c1ccc(Cl)cc1 ... inactive
O=NO ... inactive
Cc1cc(SC2=C(O)C[C@@](CCc3ccc(N)cc3)(C(C)C)OC2=O)c(C(C)(C)C)cc1CO ... active
CC(=O)CC(c1ccccc1)c1c(O)c2ccccc2oc1=O (stereo unspecified) ... inactive
CC(C)(O)c1ccc(CNC(=O)c2cccnc2Oc2ccc(F)cc2)cc1 ... active
C=CCCCCCCCCCCCC ... inactive
